test system: UACC-62; assay: Cytotoxicity against human UACC62 cells after 48 hrs by sulforhodamine B assay; type: functional; settings: Homo sapiens, UACC-62, 48 h; read-out: LC50 (the source's name)
CC50 values for the compounds below.
Form entry: value (µM) — number only.

Answered examples (3):
Exercise: What measured CC50 goes with Clc1ccc2c(NCCCNCCNc3ccnc4cc(Cl)ccc34)ccnc2c1 ?
Solution: 7.72

Exercise: What measured CC50 goes with Clc1ccc2c(NCCCNCCNCCCNc3ccnc4cc(Cl)ccc34)ccnc2c1 ?
Solution: 7.11

Exercise: What measured CC50 goes with CN(CCCNc1ccnc2cc(Cl)ccc12)CCCNc1ccnc2cc(Cl)ccc12 ?
Solution: 0.92

Further cases:
Exercise: What measured CC50 goes with Clc1ccc2c(NCCNCCNCCNc3ccnc4cc(Cl)ccc34)ccnc2c1 ?
Solution: 7.74

Origin of measurements: ChEMBL document CHEMBL2062520
